Please provide measured IC50 for the entries that follow.
Biological target: UniProt:P05164
Sequence (P05164 165-273 limits assumed): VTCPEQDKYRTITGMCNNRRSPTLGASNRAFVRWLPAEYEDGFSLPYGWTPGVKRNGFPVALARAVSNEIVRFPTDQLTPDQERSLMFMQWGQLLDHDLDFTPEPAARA
Sequence (P05164 279-745 limits assumed): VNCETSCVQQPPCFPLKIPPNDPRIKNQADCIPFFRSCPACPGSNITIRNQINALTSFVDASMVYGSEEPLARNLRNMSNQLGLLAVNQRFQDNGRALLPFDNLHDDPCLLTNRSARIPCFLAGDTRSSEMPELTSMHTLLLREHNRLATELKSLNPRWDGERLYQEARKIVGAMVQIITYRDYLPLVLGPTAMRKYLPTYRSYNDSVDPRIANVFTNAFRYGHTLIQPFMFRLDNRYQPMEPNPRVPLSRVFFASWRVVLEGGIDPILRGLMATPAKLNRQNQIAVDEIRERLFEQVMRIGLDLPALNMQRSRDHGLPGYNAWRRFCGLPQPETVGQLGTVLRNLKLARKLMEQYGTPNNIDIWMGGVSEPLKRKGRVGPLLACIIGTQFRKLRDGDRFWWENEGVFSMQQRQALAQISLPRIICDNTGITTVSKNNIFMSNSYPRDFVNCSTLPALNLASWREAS
Assay: Inhibition of recombinant human myeloperoxidase assessed as taurine chloramine production after 5 mins by spectrophotometry in presence of H2O2
Assay type: single protein
One number for each entry, in nM.

Recorded results for 3 compounds are shown here.
{"COMPOUND": "Oc1ccccc1CN1CCCN(Cc2ccccc2O)C1", "TESTED ON": "UniProt:P05164", "RECORDED ENDPOINT": "IC50", "UNIT SYMBOL": "nM", "RECORDED VALUE": 500}
{"COMPOUND": "COc1ccccc1N1CCN(C(=O)CSc2ncccc2-c2nc3ccccc3[nH]2)CC1", "TESTED ON": "UniProt:P05164", "RECORDED ENDPOINT": "IC50", "UNIT SYMBOL": "nM", "RECORDED VALUE": 6200}
{"COMPOUND": "COc1cc(OC)c(C2N=C(N)Nc3nc4ccccc4n32)cc1OC (centres undefined)", "TESTED ON": "UniProt:P05164", "RECORDED ENDPOINT": "IC50", "UNIT SYMBOL": "nM", "RECORDED VALUE": 3500}

// next item, IC50 requested
Data request, read-out IC50, for Cn1c(=O)[nH]c(=O)c2c1nc(NCCN)n2CCCOc1ccccc1
460
